Recorded values, source paper PMC8445433.

study-system: HLA-DRB1*11:01 (Homo sapiens, UniProt P01903+P01911, A100R/A169T/A87E/I96F/K41T/L162R/M171V/P40S/Q125H/Q178H/Q39Y/Q99D/R42S/S66Y/T262R/V115G/W38E)
Sequence (P01903 26-254 limits assumed, other chains not shown): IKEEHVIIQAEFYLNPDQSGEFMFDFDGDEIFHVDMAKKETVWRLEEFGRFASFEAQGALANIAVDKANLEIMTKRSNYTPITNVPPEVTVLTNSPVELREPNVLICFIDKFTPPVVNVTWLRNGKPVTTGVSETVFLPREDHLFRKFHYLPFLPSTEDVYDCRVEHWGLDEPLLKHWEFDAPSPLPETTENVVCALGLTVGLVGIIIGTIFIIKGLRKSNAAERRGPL
procedure-details: biochemical
Where a SMILES comes first, the peptide text is derived from it.
measured-parameter: IC50
Answer as a quantity: numeral, then unit.

compound | IC50
CSCC[C@H](NC(=O)[C@H](CCCCN)NC(=O)[C@H](CO)NC(=O)[C@H](CCC(=O)O)NC(=O)[C@H](CC(C)C)NC(=O)[C@H](CCC(N)=O)NC(=O)[C@H](CC(N)=O)NC(=O)[C@H](CC(C)C)NC(=O)[C@H](CCCNC(=N)N)NC(=O)[C@H](CC(=O)O)NC(=O)[C@H](CC(C)C)NC(=O)[C@H](CC(C)C)NC(=O)[C@H](CC(C)C)NC(=O)[C@@H](N)CC(C)C)C(=O)N[C@@H](CO)C(=O)O [Ncl_45] (H-LLLLDRLNQLESKMS-OH) | 94 nM

Now for a further compound.
Entry CC(C)C[C@H](NC(=O)[C@H](C)NC(=O)[C@@H](NC(=O)[C@H](Cc1ccccc1)NC(=O)[C@H](Cc1c[nH]c2ccccc12)NC(=O)[C@@H](N)CO)[C@@H](C)O)C(=O)N[C@H](C(=O)N[C@@H](CCC(N)=O)C(=O)N[C@@H](Cc1c[nH]cn1)C(=O)NCC(=O)N[C@@H](CCCCN)C(=O)N[C@@H](CCC(=O)O)C(=O)N[C@@H](CC(=O)O)C(=O)N[C@@H](CC(C)C)C(=O)N[C@@H](CCCCN)C(=O)O)[C@@H](C)O [Ncl_11] (H-SWFTALTQHGKEDLK-OH) — recorded IC50 = 493 nM
